Collected growth values appear next to each entry.
- System: OVCAR-8 ovarian
- assayMethodText: NCI-60 one-dose screen, 48 h (100 = growth as untreated, 0 = no growth, -100 = all killed)
- conditionLabel: 10 µM
About 83,000 compounds went through this panel and 20% of them were active in at least one assay; those are over-represented in the sample as a whole.
Entry rule: numbers only, all in %.

Some solved cases for reference:
- CCCCNC1(C#N)CCN(Cc2ccccc2)CC1: 96.4
- O=C(CCl)N1CCN(C/C=C/c2ccccc2)CC1: 80
- O=C(/C(=N/O)c1ccccc1)c1ccccc1: 103
- COc1cc2cc(OC(C)=O)c3cc4c(cc3c2c(OC)c1OC)OCO4: 102
- CC(C)(C)c1cc(O)c(C(C)(C)C)cc1O: 93

query: growth lookup needed for O=P(O)(O)OCC(O)CO (stereo not drawn) , thanks.
result: 109

query: # repeat for `CCOC(=O)/C(=C/c1ccc(OC)cc1)N(CC)CC`
result: 99.9

query: Try `NC(=S)NN=C1CCCC1` next.
result: 68.8

query: Now give it for O=C1OC(c2ccc(F)cc2)CC1CN1CCOCC1 (stereo not drawn) too.
result: 99.5

query: Moving on to `c1cc2cccc3c4cccc5cccc(c(c1)c23)c54`
result: 112

query: Would you mind doing `C[C@@H](c1ccccc1)[C@@H](C(=O)O)c1ccccc1` as well?
result: 98.2

query: # iterate: `C=CCOC(=O)C(=O)OCC=C`
result: 101

query: Same read-out for `COc1cc(C(=O)NC(=S)Nc2ccc3ccccc3c2)cc(OC)c1OC` ?
result: 104
